Numbers sourced from patent US20240109865A1.

Subject of test: UniProtKB P11362
Sequence (P11362 22-822): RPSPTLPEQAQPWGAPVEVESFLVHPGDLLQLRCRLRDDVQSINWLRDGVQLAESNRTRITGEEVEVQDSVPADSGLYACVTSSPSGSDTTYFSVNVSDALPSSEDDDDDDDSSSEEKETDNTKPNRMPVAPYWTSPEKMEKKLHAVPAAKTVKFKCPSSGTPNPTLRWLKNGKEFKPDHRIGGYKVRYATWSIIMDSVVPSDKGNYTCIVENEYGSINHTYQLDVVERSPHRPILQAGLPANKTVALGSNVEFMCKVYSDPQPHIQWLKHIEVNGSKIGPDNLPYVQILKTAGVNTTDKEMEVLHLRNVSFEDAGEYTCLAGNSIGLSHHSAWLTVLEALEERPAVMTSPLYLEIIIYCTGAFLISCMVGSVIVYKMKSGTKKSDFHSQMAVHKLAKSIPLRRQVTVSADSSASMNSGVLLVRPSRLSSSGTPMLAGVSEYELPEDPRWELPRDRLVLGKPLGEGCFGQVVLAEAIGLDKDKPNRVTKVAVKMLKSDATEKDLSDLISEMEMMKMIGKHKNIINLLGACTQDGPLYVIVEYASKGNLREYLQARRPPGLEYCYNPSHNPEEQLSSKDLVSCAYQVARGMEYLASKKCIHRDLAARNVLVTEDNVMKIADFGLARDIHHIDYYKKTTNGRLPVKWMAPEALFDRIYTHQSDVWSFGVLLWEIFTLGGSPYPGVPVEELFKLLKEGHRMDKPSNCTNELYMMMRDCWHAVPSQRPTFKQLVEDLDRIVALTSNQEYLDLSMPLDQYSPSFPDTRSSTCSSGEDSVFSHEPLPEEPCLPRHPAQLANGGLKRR
Protocol summary: Kinase assay, binding constants (Kd), kinase-tagged T7 phage, qPCR
Measured metric: Kd

With UniProtKB P11362 as the test system, provide measured Kd for this compound: C[C@H](Oc1ccc2[nH]nc(-c3cnc(N4CCC4)c(C#N)c3)c2c1)c1c(Cl)cnc(F)c1Cl
> 300 nM

With UniProtKB P11362 as the test system, provide measured Kd for this compound: COc1cc2[nH]nc(-c3cnc(N4CC5CC(C4)N5CC(C)(C)O)c(C)c3)c2cc1O[C@H](C)c1c(C)cnnc1C
1 to 20 nM

With UniProtKB P11362 as the test system, provide measured Kd for this compound: Cc1cc(-c2n[nH]c3ccc(O[C@H](C)c4c(Cl)cncc4Cl)cc23)cnc1N1CCOCC1
20 to 100 nM

With UniProtKB P11362 as the test system, provide measured Kd for this compound: CCS(=O)(=O)N1CC2(CN(c3ncc(-c4n[nH]c5ccc(O[C@H](C)c6c(Cl)cncc6Cl)cc45)cn3)C2)C1
20 to 100 nM
